- target of assay: hBPGM (Homo sapiens (Human))
Just a reminder that ties go to Not met: only IC50 strictly below 8 µM counts as Met.

// known answers, use as guide
| smi | target of assay | class name |
| --- | --- | --- |
| O=C(O)c1ccc(-c2nc(-c3ccnc(COc4ncccn4)c3)cs2)cc1 | hBPGM (Homo sapiens (Human)) | Met |
| Cc1nc(C)c(-c2ccc(O)c(-c3ccc(C(=O)O)cc3)c2)s1 | hBPGM (Homo sapiens (Human)) | Not met |
| Cc1nc(COc2ccc(C#N)cn2)sc1-c1cccc(-c2ccc(C(=O)O)c(O)c2)c1 | hBPGM (Homo sapiens (Human)) | Met |

Req: Please check: IC50 for Cc1nc(C)c(-c2csc(-c3cc(O)c(C(=O)O)cc3F)c2)s1 , strictly under 8 µM or not?
Resp: Met

Req: Would you mind doing Cc1nc(COc2ncccn2)sc1-c1cccc(-c2cc(C(=O)O)nn2C(C)C)n1 as well?
Resp: Not met

Req: Would you mind doing Cc1ccc(C#N)c(OCCc2cnn(-c3cccc(-c4ccc(C(=O)O)c(O)c4)c3)c2)n1 as well?
Resp: Not met

Req: Would you mind doing Cc1nc(CNC(=O)c2cccnn2)sc1-c1cccc(-c2ccc(C(=O)O)cc2)c1 as well?
Resp: Met

----------
- target of assay: human Bisphosphoglycerate mutase (hBPGM) (Homo sapiens (Human), UniProt P07738)
- Sequence (P07738 whole entry): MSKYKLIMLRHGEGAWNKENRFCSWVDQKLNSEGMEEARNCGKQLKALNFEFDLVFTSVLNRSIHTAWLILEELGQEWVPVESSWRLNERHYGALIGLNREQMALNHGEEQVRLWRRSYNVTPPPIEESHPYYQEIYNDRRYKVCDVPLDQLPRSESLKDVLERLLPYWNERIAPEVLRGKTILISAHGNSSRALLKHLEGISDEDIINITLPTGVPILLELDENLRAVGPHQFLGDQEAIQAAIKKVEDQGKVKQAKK
- assay: BPGM Phosphatase Assay
- conditions used: Table 6 additional results; read-out: huBPGM: phosphatase Enzyme EC50
pEC50: −log10 of the molar value.
result type: pEC50

| smi | experimental value |
| --- | --- |
| COC(=O)NCc1nc(C)c(-c2csc(-c3ccc(C(=O)O)cc3F)n2)s1 | < 4.60 |
| COC(=O)NCc1nc(C)c(-c2csc(-c3cc(O)c(CC(=O)O)cc3F)n2)s1 | < 4.60 |

Req: For Cc1nc(COc2ncccn2)sc1-c1cccc(-c2c[nH]c(C(=O)O)c2)n1 , what is its reported pEC50?
Resp: < 4.60

----------
// each record: one item and its IC50 for UniProt P07738
Give bare numbers, in µM.

Consider the following illustrative entries.
| molecule | unit tag | IC50 |
| --- | --- | --- |
| Cc1nc(C)c(-c2csc(-c3cc(O)c(C(=O)O)cn3)n2)s1 [Example 284] | µM | 2.8 |
| Cc1nc(CNC(=O)C(=O)N(C)C)sc1-c1csc(-c2cc(O)c(C(=O)O)cc2F)n1 [Example 203] | µM | 0.21 |
| Cc1nc(COc2ncccn2)sc1-c1cccc(-c2ccc(C(=O)O)c(C(=O)O)c2)n1 [Example 70] | µM | 11 |

Required: IC50, one value per molecule below.
1. Cc1nc(COC2CCCCO2)sc1-c1cccc(-c2ccc(C(=O)O)cc2)n1 (centres unmarked) [Example 55]
2. Cc1nc(COc2ncccn2)sc1-c1cccc(-c2ccc(C(=O)O)o2)n1 [Example 33]

Resp:
1: 0.38; 2: 11

Required: IC50, one value per molecule below.
1. Cc1nc(CNC(=O)c2ccccn2)sc1-c1csc(-c2cc(O)c(C(=O)O)cc2F)n1 [Example 200]
2. Cc1nc(COc2ccccn2)sc1-c1ccc(-c2ccc(C(=O)O)c(O)c2)s1 [Example 340]

Resp:
1. 0.073
2. 3.6

Req: For Cc1nc(COc2ncccn2)sc1-c1cccc(-c2ccc(C(=O)O)cc2)n1 [Example 95] , what is its reported IC50?
Resp: 0.28

----------
Provide the recorded IC50 for the entries that follow.
- target of assay: hBPGM (Homo sapiens (Human), UniProt P07738)
- Sequence (P07738 whole entry, looked up): as the sequence (P07738 whole entry) above

Consider the following illustrative entries.
| smi | experimental value |
| --- | --- |
| Cc1nc(C)c(COc2ccc(C(=O)O)c(O)c2)s1 | > 25 µM |
| Cc1nc(CNCC(C)(C)C)sc1-c1cccc(-c2ccc(C(=O)O)cc2)c1 | > 25 µM |

Req: For Cc1nc(C)c(N2CCN(c3ccc(C(=O)O)c(O)c3)C2=O)s1 , what is its reported IC50?
Resp: > 25 µM

----------
// each record: one item and its IC50 for hBPGM (Homo sapiens (Human))

Consider the following illustrative entries.
| compound | result type | experimental value |
| --- | --- | --- |
| Cc1nc(COc2ncccn2)sc1-c1cccc(-c2cnc(C(=O)O)nc2)n1 | IC50 | > 25 µM |
| Cc1nc(COc2ccccn2)sc1-c1cccc(-c2ccc(C(=O)O)cc2)n1 | IC50 | > 25 µM |
| Cc1ccc(C#N)c(OCC(=O)N2CC(c3cccc(-c4ccc(C(=O)O)cc4)c3)C2)n1 | IC50 | > 250 µM |

Required: IC50, one value per compound below.
1. Cc1nc(C)c(-c2cc(-c3ccc(C(=O)O)cc3)ccc2O)s1
2. Cc1nc(CO)sc1-c1cccc(-c2ccc(C(=O)NCC(=O)N3CCC(C(=O)O)C3)cc2)n1 (centres unmarked)

Resp:
["> 250 µM", "> 25 µM"]

----------
- target of assay: hBPGM (Homo sapiens (Human))
result type: IC50 (nM)
Answers are plain numbers, in nM.

Consider the following illustrative entries.
| compound | unit tag | experimental value |
| --- | --- | --- |
| Cc1nc(N)sc1-c1csc(-c2cc(O)c(C(=O)O)cc2F)n1 | nM | 930 |
| Cc1nc(CNC(=O)C2CC2)sc1-c1ccc(-c2ccc(C(=O)O)c(O)c2)s1 | nM | 690 |
| Cc1cccnc1OCc1nc(C)c(-c2cccc(-c3ccc(C(=O)O)c(O)c3)c2)s1 | nM | 1500 |
| Cc1nc(CN)sc1-c1csc(-c2cc(O)c(C(=O)O)cc2F)n1 | nM | 830 |
| Cc1nc(CN)sc1-c1csc(-c2ccc(C(=O)O)c(O)c2)c1 | nM | 840 |
| Cc1nc(Cc2ccccn2)sc1-c1cccc(-c2ccc(C(=O)O)cc2)c1 | nM | 910 |
| Cc1nc(Cc2ccccc2)sc1-c1cccc(-c2ccc(C(=O)O)c(O)c2)c1 | nM | 1200 |
| Cc1nc(CNC(=O)C2CCC2)sc1-c1csc(-c2cc(O)c(C(=O)O)cc2F)n1 | nM | 52 |
| Cc1nc(CNc2ncccn2)sc1-c1cccc(-c2ccc(C(=O)O)cc2)n1 | nM | 630 |
| Cc1nc(COCc2ccccn2)sc1-c1csc(-c2cc(O)c(C(=O)O)cc2F)n1 | nM | 200 |

Required: IC50, one value per compound below.
1. Cc1nc(C)c(-c2cccc(-c3ccc(C(=O)O)cc3)c2)s1
2. Cc1ccc(C#N)c(OCCn2cc(-c3cccc(-c4ccc(C(=O)O)c(O)c4)c3)cn2)n1 [Example 111]
3. Cc1nc(Cc2ccc(C(F)(F)F)cc2)sc1-c1cccc(-c2ccc(C(=O)O)c(O)c2)c1
4. Cc1nc(Cn2cccn2)sc1-c1csc(-c2cc(O)c(C(=O)O)cc2F)c1
5. Cc1nc(Cc2ccn(C)n2)sc1-c1cccc(-c2ccc(C(=O)O)c(O)c2)c1

Resp:
1: 6400; 2: 15000; 3: 6600; 4: 190; 5: 190

----------
// each record: one item and its IC50 for hBPGM (Homo sapiens (Human))
One number for each entry, in nM.

| compound | unit tag | IC50 |
| --- | --- | --- |
| Cc1nc(COc2ccc(F)cn2)sc1-c1cnn(-c2ccc(C(=O)O)cc2)n1 | nM | 850 |
| Cc1nc(C)c(-c2cccc(-c3ccc(C(=O)O)c(O)c3)c2)s1 | nM | 2300 |
| Cc1nc(CNC(=O)CCN(C)C)sc1-c1csc(-c2cc(O)c(C(=O)O)cc2F)n1 | nM | 670 |
| Cc1cccc(OCc2nc(C)c(-c3cccc(-c4ccc(C(=O)O)c(O)c4)c3)s2)n1 | nM | 2000 |
| Cc1nc(COc2ncccn2)sc1-c1csc(-c2cc(O)c(C(=O)O)cc2F)n1 | nM | 28 |

Required: IC50, one value per compound below.
1. Cc1nc(CNC(=O)c2cccnc2)sc1-c1csc(-c2cc(O)c(C(=O)O)cc2F)n1
2. Cc1nc(CNC(=O)C2CC2)sc1-c1csc(-c2cc(O)c(C(=O)O)cc2F)c1

Resp:
1. 67
2. 78

Required: IC50, one value per compound below.
1. Cc1nc(CNC(=O)c2cccnn2)sc1-c1csc(-c2cc(O)c(C(=O)O)cc2F)n1 [Example 197]
2. Cc1nc(Cc2cccnc2)sc1-c1cccc(-c2ccc(C(=O)O)c(O)c2)n1

Resp:
[24, 140]
